- Tested on: Saccharomyces cerevisiae BY4741 SeMeCo community
- run_description: z-score of subpopulation abundance vs DMSO median, subpopulation auxotrophic for HUM; higher = larger share of this subpopulation than in DMSO controls
- assay_setup: 10 µM; 24 h; SM minimal medium; subpopulation (auxotrophy): HUM
Structures can show the parent of a compound that is named as a salt.
property_name: z-score of subpopulation abundance

INSERT INTO measurements (compound, property_name, value_reported) VALUES
  ('CCCN[C@H]1CCc2nc(N)sc2C1 [Pramipexole 2HCl Monohydrate]', 'z-score of subpopulation abundance', -0.88),
  ('C[C@]12CC[C@@H]3c4ccc(O)cc4CC[C@H]3[C@@H]1CC[C@@H]2OC(=O)CCC1CCCC1 [Estradiol Cypionate]', 'z-score of subpopulation abundance', 1.22),
  ('CC[C@H]1OC(=O)C[C@@H](O)[C@H](C)[C@@H](O[C@@H]2O[C@H](C)[C@@H](O)[C@H](N(C)C)[C@H]2O)[C@@H](CCN2C[C@H](C)C[C@H](C)C2)C[C@@H](C)C(=O)/C=C/C(C)=C/[C@@H]1CO[C@@H]1O[C@H](C)[C@@H](O)[C@@H](OC)[C@H]1OC [Tilmicosin]', 'z-score of subpopulation abundance', 0.75),
  ('C#C[C@]1(O)CC[C@H]2[C@@H]3CCc4cc(OC)ccc4[C@H]3CC[C@@]21C', 'z-score of subpopulation abundance', -0.58),
  ('C[n+]1ccccc1C=NO [Pralidoxime Iodide]', 'z-score of subpopulation abundance', 0.13),
  ('CCC(=O)NS(=O)(=O)c1ccc(-c2c(-c3ccccc3)noc2C)cc1', 'z-score of subpopulation abundance', -0.44),
  ('O=C1CCc2cc(OCCCCc3nnnn3C3CCCCC3)ccc2N1', 'z-score of subpopulation abundance', -0.31),
  ('O=C(O)c1ccccc1C(=O)Nc1ccc(S(=O)(=O)Nc2nccs2)cc1', 'z-score of subpopulation abundance', 0.99),
  ('COCCCOc1ccnc(C[S+]([O-])c2nc3ccccc3[nH]2)c1C (configuration not stated) [Rabeprazole]', 'z-score of subpopulation abundance', 0.23),
  ('N[C@@H](C(=O)N[C@@H]1C(=O)N2C(C(=O)O)=C(Cl)CS[C@H]12)c1ccccc1', 'z-score of subpopulation abundance', 0.37),
  ('CCOC(=O)c1ccc(N)cc1 [Benzocaine hydrochloride]', 'z-score of subpopulation abundance', 0.44),
  ('Cc1ccc(Sc2ccccc2N2CCNCC2)c(C)c1 [Vortioxetine]', 'z-score of subpopulation abundance', 0.6),
  ('COC(=O)C1=C(C)NC(C)=C(C(=O)OCC(C)C)C1c1ccccc1[N+](=O)[O-] (configuration not stated)', 'z-score of subpopulation abundance', 1.07),
  ('Cc1nccn1CC1CCc2c(c3ccccc3n2C)C1=O (configuration not stated) [Ondansetron HCl]', 'z-score of subpopulation abundance', -0.03),
  ('NS(=O)(=O)Cc1noc2ccccc12 [Zonisamide]', 'z-score of subpopulation abundance', 0.45),
  ('CO/N=C(\C(=O)N[C@@H]1C(=O)N2C(C(=O)O)=CCS[C@H]12)c1csc(N)n1 [Ceftizoxime sodium]', 'z-score of subpopulation abundance', 0.09),
  ('CCCCCc1ccc(C)cc1O', 'z-score of subpopulation abundance', -0.2);

Source listed as the supplement of paper PMC8975748.
